Below is a list of entries, each paired with its recorded % pSTAT3+ Jurkat cells, 0.1 nM rhIL-21 + 0.1602 nM antibody value.
- assay_system: recombinant human IL-21 (rhIL-21) (human, UniProt Q9HBE4 30-162, limits assumed)
- Sequence (Q9HBE4 30-162 limits assumed): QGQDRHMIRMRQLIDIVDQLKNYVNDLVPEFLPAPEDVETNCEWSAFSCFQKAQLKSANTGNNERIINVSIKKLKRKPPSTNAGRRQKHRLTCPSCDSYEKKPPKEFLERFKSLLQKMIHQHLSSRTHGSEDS
- test_protocol: cell-based or functional assay
Answer format: numeric, % implied, no suffix.

Consider the following illustrative entries.
binder="MIZ926 (antibody, human IgG1, V domains shown) VH: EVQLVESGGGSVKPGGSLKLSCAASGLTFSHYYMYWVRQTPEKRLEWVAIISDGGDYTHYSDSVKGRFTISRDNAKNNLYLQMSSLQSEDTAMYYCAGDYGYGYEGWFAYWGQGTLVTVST VL: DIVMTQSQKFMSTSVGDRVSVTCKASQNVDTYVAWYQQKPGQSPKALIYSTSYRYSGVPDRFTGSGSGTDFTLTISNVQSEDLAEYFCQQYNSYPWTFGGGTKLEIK" readout_value=72.4
binder="LKK631 (antibody, human IgG1, V domains shown) VH: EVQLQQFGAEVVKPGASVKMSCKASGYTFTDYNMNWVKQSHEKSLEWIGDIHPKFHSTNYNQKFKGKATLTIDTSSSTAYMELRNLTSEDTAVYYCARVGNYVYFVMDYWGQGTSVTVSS VL: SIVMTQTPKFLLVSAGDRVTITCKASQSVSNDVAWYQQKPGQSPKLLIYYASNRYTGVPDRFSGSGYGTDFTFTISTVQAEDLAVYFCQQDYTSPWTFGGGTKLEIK" readout_value=72.4
binder="ZAP122 (antibody, human IgG1, V domains shown) VH: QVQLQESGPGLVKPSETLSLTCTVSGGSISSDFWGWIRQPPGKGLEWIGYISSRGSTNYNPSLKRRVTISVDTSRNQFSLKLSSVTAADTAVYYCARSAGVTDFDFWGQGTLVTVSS VL: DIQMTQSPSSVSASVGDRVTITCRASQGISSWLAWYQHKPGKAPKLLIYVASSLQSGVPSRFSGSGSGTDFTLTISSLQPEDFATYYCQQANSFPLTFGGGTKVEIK" readout_value=33.2

Lookup: Reported % pSTAT3+ Jurkat cells, 0.1 nM rhIL-21 + 0.1602 nM antibody for FYP014 (antibody, human IgG1, V domains shown, human IgG1; also called EP3103813A1 clone 366.328.10.63) VH: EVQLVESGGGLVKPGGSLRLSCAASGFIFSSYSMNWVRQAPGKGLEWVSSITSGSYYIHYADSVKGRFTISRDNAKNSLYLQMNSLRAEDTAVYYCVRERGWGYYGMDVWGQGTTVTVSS VL: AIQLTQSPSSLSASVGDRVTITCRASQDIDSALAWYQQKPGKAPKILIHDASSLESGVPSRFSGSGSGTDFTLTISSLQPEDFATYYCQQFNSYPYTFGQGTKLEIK : what is it?
Found: 6.07

The reported numbers originate from patent EP4671273A1.
